Where do these numbers come from? They come from paper PMC6753678.

test system: 3D7-strain P. falciparum asexual parasites; test: P. falciparum asexual growth inhibition assay (Pf GIA); format: cell-based, Plasmodium falciparum; conditions: dose response confirmation; read-out: Pf asexual growth inhibition assays IC50
readout_kind: pIC50
Scale: negative log10 of molar concentration, which is what pIC50 denotes.

COCCn1c(-c2cccc(Cl)c2)nn(-c2ccc([N+](=O)[O-])cc2Cl)c1=S; 6.02
COc1cccc(CNCC(C)(C)c2nc(-c3ccc(Cl)c(O)c3)c(-c3ccncc3)[nH]2)c1.Cl; 6.12

Per the reported 3D7-strain P. falciparum asexual parasites data, `Cc1c2ccncc2c(C)c2c1[nH]c1ccccc12` has pIC50 of 5.92

###

system: HepG2 cells; test: HepG2 cytotoxicity assay; conditions: unified HepG2 value across the three screens
readout_kind: Unified cytotox (µM)
Give your result in µM as a bare value.

As a guide, the following entries are already answered.
Cc1ccccc1-c1cc(=O)c2cc(NC(=O)c3cccs3)ccc2o1; 100.00
CC(C)CN1CCN(c2nc(C#N)c3c(c2C(=S)NC2CCCCC2)CC(C)(C)OC3)CC1; 100.00
CCCOc1cc(OCCC)cc(-c2cc(=O)c3ccccc3[nH]2)c1; 100.00

Field Unified cytotox (entry `O=C(c1ccco1)N1CCN(c2ccc([N+](=O)[O-])c(NC3CC3)c2)CC1` ) reads 2.04

Field Unified cytotox (entry `O=C(NCC1CCCCC1)c1cc(=O)c2ccccc2o1` ) reads 100.00

Field Unified cytotox (entry `Cc1c2ccncc2c(C)c2c1[nH]c1ccccc12` ) reads 15.14

Field Unified cytotox (entry `COc1coc(C(=O)NC2CCN(CC3(c4ccc(Cl)cc4)CCC3)CC2)c1OC` ) reads 52.48

Field Unified cytotox (entry `O=C(NC(=O)c1ccccc1O)c1ccccc1O` ) reads 100.00

Field Unified cytotox (entry `Cc1noc(C)c1-c1cccc(CNCc2ccc(-c3ccc(-c4nc5cccc(C)c5[nH]4)cc3)cc2)c1.O=C(O)C(F)(F)F` ) reads 7.94

Field Unified cytotox (entry `Cl.OCC(CO)(CO)NCc1ccc2c3c(cccc13)-c1ccccc1-2` ) reads 9.55

###

Parameter: pIC50. Scope: all listed entries.
tested on: HepG2 cells; assay: HepG2 cytotoxicity assay; settings: read-out: HepG2 cytotoxicity assay IC50; dose response confirmation
Scale: negative log10 of molar concentration, which is what pIC50 denotes.

Cl.c1ccc(Oc2ccc(Nc3nncc4ccccc34)cc2)cc1; 4.00

Field pIC50 (entry Cc1cc(=O)c(-c2ccc(Oc3cccc(C(F)(F)F)c3)cc2)c(C)[nH]1 [TCMDC-137536] ) reads 4.00

Field pIC50 (entry COc1ccc(-c2ccc([N+](=O)[O-])cc2C(=O)NCC(C)Oc2ccc(C(F)(F)F)cc2)cc1 (stereo not drawn) ) reads 4.00

Field pIC50 (entry `Cc1ccc(C2(CN3CCC(NC(=O)c4ccn[nH]4)CC3)CCCCC2)cc1` ) reads 4.37

Field pIC50 (entry `Cc1nc(/N=C(\N)NC(=O)NC2CCCCC2)nc2ccccc12` ) reads 4.45

Field pIC50 (entry `Cc1nc(C)c(-c2ccc(Oc3ccc(OC(F)(F)F)cc3)cc2)c(OC(=O)c2ccccc2)c1Cl` ) reads 4.43

###

system: P. falciparum female gametocytes; experiment: P. falciparum female gametogenesis assay (Pf FGAA); conditions: 1: YES; 0: NO
readout_kind: Is compound selective in assay? Pf FGAA active?

Field Is compound selective in assay? Pf FGAA active? (entry CC(C)c1ccc(CN2CCC(CNC(=O)c3cc(-c4cccc(Cl)c4)cs3)C2)cc1.O=C(O)C(F)(F)F (centres unmarked) [TCMDC-134438] ) reads 1 (1: YES)

Field Is compound selective in assay? Pf FGAA active? (entry CN1CCN(CCCN(Cc2cccc(-c3ccc(CNC4CCCC4)cc3)c2)C(=O)/C=C/c2ccccc2)CC1.O=C(O)C(F)(F)F [TCMDC-140544] ) reads 0 (0: NO)

Field Is compound selective in assay? Pf FGAA active? (entry CC(C)Oc1ccc2ccccc2c1CNCCCCCCNCc1c(OC(C)C)ccc2ccccc12.CS(=O)(=O)O [TCMDC-137965] ) reads 0 (0: NO)

Field Is compound selective in assay? Pf FGAA active? (entry CC(C)(C)c1cc(NC2CC2)nc(-c2ccccn2)n1 [TCMDC-125826] ) reads 1 (1: YES)

Field Is compound selective in assay? Pf FGAA active? (entry COc1ccc2cc(CNCCCCCCNCc3ccc4cc(OC)ccc4c3)ccc2c1.CS(=O)(=O)O [TCMDC-137797] ) reads 0 (0: NO)
